test: yeast display, Sf9 membrane polyspecificity reagent, FACS + sequencing; frameworks hold sequencing errors
QUANTITY: polyreactivity (PSR sort gate)

Solved entries:
| QUERY SEQUENCE | QUANTITY | VALUE OBSERVED |
| --- | --- | --- |
| QVQLVESGGGLVQAGGSLRLSCAACGSIFPGYAMGWYRQAPGKERELVATIRWSSGSRTNYADSVKGRFTISRDNAKNTVYLQMNSLKPEDTAVYYCAAGSRRYKYDYWGQGTQVTVSS | polyreactivity (PSR sort gate) | high polyreactivity |
| QVQLVESGGGLVHAGGSLRLSCAPSGSTFDDYTMGWYRPAPGKERELVAAISSAGSTNYADSVKGRFTISRDNAKNTVYLQMNSLKPEDTAVYYCAAQVHPIRYDYWGQGTQVTVSS | polyreactivity (PSR sort gate) | low polyreactivity |
| QVQLVESGGGLVQAGGSLRLSCAASGIIFRRYARGWYRQAPGKERELVAAITRGGITYYADSVKGRFTISRDNAKNTVYLQMNSLKPEDTAVYYCAATYSGTYSLGGGYDYWGQGTQVTVSS | polyreactivity (PSR sort gate) | low polyreactivity |
| QVQLVDSGGGLVQAGGSLRLTCDASGSTFYVNFMGWYRQAPGKERELDALIDWRGGSTYYADSVKGRFTISRDNAKNTVYLQMNSLKPEDTAVYYCKKDAQFYYKLPYYKERDWGQGTQVTVSS | polyreactivity (PSR sort gate) | low polyreactivity |

Proceeding to the next sequence to report its polyreactivity (PSR sort gate).
Asked: Look up and state reported polyreactivity (PSR sort gate) for QVQLVESGGGLVQAGGSLRLSCAASGRIFYGNAMGWYRQAPGKERELVATISSSGGRTTYADSVKGRFTISRDNAKNTVYLQMNSLKPEDTAVYYCNARYRTRSLKYYYWGQGTQVTVSS
Given back: high polyreactivity

----------
assay: yeast display, Sf9 membrane polyspecificity reagent, FACS + sequencing; frameworks hold sequencing errors

| QUERY SEQUENCE | polyreactivity (PSR sort gate) |
| --- | --- |
| QVQLVESGGGLVQAGGSLRLSCAASGFTFYAYAMGWYRPAPGKERELVAALTGRGGSTYYADSVKGRFTISRDNAKNTVYLQMNSLKPEDTAVYYCNKVKQSDKFNNFSNDYWGQGTQVTVSS | high polyreactivity |
| QVQLVESGGGLVQAGGSLRLSCAASGFIFSRYAMGWYRQAPGKERELVASISWGGGSTSYADSVKGRFTISRDNAKNTVYLQMNSLKPEDTAVYYCNARVRSHRFNYWGQGTQVTVSS | high polyreactivity |

----------
experiment: yeast display, Sf9 membrane polyspecificity reagent, FACS + sequencing; frameworks hold sequencing errors
QUANTITY: polyreactivity (PSR sort gate)

Known results for sequences:
| QUERY SEQUENCE | polyreactivity (PSR sort gate) |
| --- | --- |
| QVQLVESGGGLVQAGGSHRLSCAASGLTFRKYAMGWYRQAPGKERELVATISRNGGSTYYADSVKGRFTISRDNAKNTVYLQMNSLKPEDTAVYYCAADYYTYDYAGYGDWGQGTQVTVSS | high polyreactivity |
| QVQLVESGGGLVQAGGSLRLSCAASGPTFYKYAMGWYRQAPGKERELVATITRRGGSTYYADSVKGRFTISRDNAKNTVYLQMNSLKPEDTAVYYCAKEIFLKGPDGHDYWGQGTQVTVSS | low polyreactivity |
| QFQLVESGGGLVQAGGSLRLSCAASGRIFEDSMGWYRQAPGKERELVAAIRWSGGGTYYADSVKGRFTISRDNAKNTVYLQMNSLKPEDTAVYYCATPGTGSVELYGYWGQGTQVTVSS | low polyreactivity |
| QVQLLESGGGLFQAGGILRLSCAASGLIFWSNAMGWYRKEPGKERELVAAISRRGGRTYYADSVKGRFTISRDNAKNTVYVQMNSLKPEDSALYYCNADLYFLTFGYDYWGQGTQVTVSS | high polyreactivity |
| QVQLVESGGGLVQAGGSLRLSCAASGRTFGVYAMGWYRQAPGKERELVAAIRWSGGGTYYADSVKGRFTISPDNAKNTVYLQMNSLKPEDTAVYYCAATFQNSPYTRYTDMYYWGQGTQVTVSS | low polyreactivity |

Asked: Identify measured polyreactivity (PSR sort gate) associated with QFQLVESGGGLVQAGGSLRLSCAASGSTFWTNAMGWYRQAPGKERELVAVISRGGSTNYADSVKGRFTISRDNEKNTVYLQMNSLKPEDTAVFYCAAASYLYGRYYYWGQGTQVTVSS
Given back: high polyreactivity

Asked: Tell us which polyreactivity (PSR sort gate) value is on record for QLQLVESGRGLVQAGVSLRLSCAASGFIFEDYAMGCYRTAPGNDRELVAAISRRGGSTYYADSVKGRFTISRYNAKKTVYLQMNSLKPEDTAVYYCAAYYPYSGKGGYDYWGQGTQVTVSS
Given back: high polyreactivity

Asked: Find the measured polyreactivity (PSR sort gate) of QVQRVESGGGLVQAGGSLRLSCAASGRTFAPNAMGWYRQAPGKERELVAAITRRTGSTYYADSVKGRFTISRDNAKNTVYLQMNSLKPEDTAVYYCNGRRRTWYGFYYWGQGTQVTVSS and report it.
Given back: high polyreactivity

Asked: State its polyreactivity (PSR sort gate) for this sequence: QVQLVESGGGLVQAGGSLRLCCAAAGSTFVYYAMGSYRAAPGNERELVAAIRNGDGTNYADSVKGRFTISRDNAKNTVYLQMNSLKPEDTAVYYCAAPQGEYFYVYEFDYWGQGTQVTVSS
Given back: low polyreactivity

Asked: Provide measured polyreactivity (PSR sort gate) value, entry: QVQLQESGGGLMQAGGNLRLSCAASGYISTNDDMDWYRQAPGKERELVARIDDGAITNYADSVKGRFTISRDNAKKTVYLQMNSLKPEDTAVYYFAVYSGDDYYHDYWGQGTQVTVSS
Given back: low polyreactivity

Asked: Recall and state the measured polyreactivity (PSR sort gate) for QVQLVESGGGLVQAGGSLRLSCAASGRTFSTNDMGWYRQAPGKERELVAAIDFDSDSTYYADSVKGRFTISRDNAKNTVYLQMNSMKPEDTAVYYCAAQYFSYGESYEYWGQGTQVTVSS .
Given back: low polyreactivity
